Biological target: feline FcRn complex (FcRn-α subunit and β-microglobulin), biotin labeled (feline)
Assay: SPR, pH 6
pKd: −log10 of the molar value.

# Binder, pKd
rows = [
    ("feline IgG1a L432S (antibody, part only; not given: Variable domains, not shown: another chain or arm of the molecule) constant: ASTTAPSVFPLAPSCGTTSGATVALACLVLGYFPEPVTVSWNSGALTSGVHTFPAVLQASGLYSLSSMVTVPSSRWLSDTFTCNVAHPPSNTKVDKTVRKTDHPPGPKPCDCPKCPPPEMLGGPSIFIFPPKPKDTLSISRTPEVTCLVVDLGPDDSDVQITWFVDNTQVYTAKTSPREEQFNSTYRVVSVLPILHQDWLKGKEFKCKVNSKSLPSPIERTISKAKGQPHEPQVYVLPPAQEELSRNKVSVTCLIKSFHPPDIAVEWEITGQPEPENNYRTTPPQLDSDGTYFVYSKLSVDRSHWQRGNTYTCSVSHEASHSHHTQKSLTQSPGK", 8.18),
    ("feline IgG1a S252Y/S428Y/L314K (antibody, part only; not given: Variable domains, not shown: another chain or arm of the molecule) constant: ASTTAPSVFPLAPSCGTTSGATVALACLVLGYFPEPVTVSWNSGALTSGVHTFPAVLQASGLYSLSSMVTVPSSRWLSDTFTCNVAHPPSNTKVDKTVRKTDHPPGPKPCDCPKCPPPEMLGGPSIFIFPPKPKDTLYISRTPEVTCLVVDLGPDDSDVQITWFVDNTQVYTAKTSPREEQFNSTYRVVSVLPILHQDWKKGKEFKCKVNSKSLPSPIERTISKAKGQPHEPQVYVLPPAQEELSRNKVSVTCLIKSFHPPDIAVEWEITGQPEPENNYRTTPPQLDSDGTYFVYSKLSVDRSHWQRGNTYTCSVYHEALHSHHTQKSLTQSPGK", 8.10),
]
